target under test: human MC3R (Homo sapiens)
Construct: expressed in transfected cells; host or cells: HEK-293 cells stably expressing the GScAMP22F split-luciferase cAMP sensor (parent reporter line from Promega); MC3R clone generated in-house, G418 selection
assay protocol: split-luciferase cAMP sensor assay, agonist mode (measurement window 1), hMC3R
Type: cell-based
cond: MC4R versus MC3R
Positions of bridges follow the written chain, without caps; N, C: chain ends. Non-standard residues stand in square brackets, D forms with d. Residues, ends and D or L forms follow the SMILES beside them. 3Pal = N[C@@H](Cc1cccnc1)C(=O)O; Cit = NC(=O)NCCC[C@H](N)C(=O)O; Nle = CCCC[C@H](N)C(=O)O; Aib = CC(C)(N)C(=O)O

- molecule: "CC(=O)N[C@H]1CSSC[C@@H](C(N)=O)NC(=O)[C@H](Cc2c[nH]c3ccccc23)NC(=O)[C@H](CCCNC(=N)N)NC(=O)[C@@H](Cc2ccccc2)NC(=O)[C@H](CCCNC(N)=O)NC(=O)C(C)(C)NC1=O [CTX-1633, cyclo(Cys-Aib-Cit-D-Phe-Arg-Trp-Cys)] (Ac-C[Aib][Cit][dF]RWC-NH2; disulfide 1-7 (inferred))"
  MC4R selectivity vs MC3R: 104
- molecule: "CC(=O)N[C@@H](CCCNC(=N)N)C(=O)N[C@H]1CSSC[C@@H](C(N)=O)NC(=O)[C@H](Cc2c[nH]c3ccccc23)NC(=O)[C@H](CCCNC(=N)N)NC(=O)[C@@H](Cc2ccccc2)NC(=O)[C@H](CCCNC(=N)N)NC(=O)C(C)(C)NC1=O [CTX-1292, Arg-cyclo(Cys-Aib-Arg-D-Phe-Arg-Trp-Cys)] (Ac-RC[Aib]R[dF]RWC-NH2; disulfide 2-8 (inferred))"
  MC4R selectivity vs MC3R: 21
- molecule: "CCCC[C@H](NC(=O)[C@H](CCCNC(=N)N)NC(C)=O)C(=O)N[C@H]1CSSC[C@@H](C(N)=O)NC(=O)[C@H](Cc2c[nH]c3ccccc23)NC(=O)[C@H](CCCNC(=N)N)NC(=O)[C@@H](Cc2ccccc2)NC(=O)[C@H](Cc2cccnc2)NC1=O [CTX-1620] (Ac-R[Nle]C[3Pal][dF]RWC-NH2; disulfide 3-8 (inferred))"
  MC4R selectivity vs MC3R: 12

----------
Each item that follows carries a reported EC50.
target under test: human MC3R (Homo sapiens, UniProt P41968)
Construct: expressed in transfected cells; host or cells: HEK-293 cells stably expressing the GScAMP22F split-luciferase cAMP sensor (parent reporter line from Promega); MC3R clone generated in-house, G418 selection
Sequence (P41968 whole entry): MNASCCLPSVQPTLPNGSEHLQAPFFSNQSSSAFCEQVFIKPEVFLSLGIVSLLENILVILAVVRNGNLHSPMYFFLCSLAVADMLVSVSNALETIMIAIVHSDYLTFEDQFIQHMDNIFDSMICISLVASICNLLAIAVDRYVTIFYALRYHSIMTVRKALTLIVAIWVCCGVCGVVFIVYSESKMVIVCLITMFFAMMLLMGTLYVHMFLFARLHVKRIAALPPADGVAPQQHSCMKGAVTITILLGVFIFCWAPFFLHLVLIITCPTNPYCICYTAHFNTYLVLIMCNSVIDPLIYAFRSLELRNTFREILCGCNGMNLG
assay protocol: split-luciferase cAMP sensor assay, agonist mode (measurement window 1), hMC3R
Format: cell-based
cond: HEK-293 cells stably expressing hMC3R, agonist mode; read-out: MC3R cAMP EC50
Positions of bridges follow the written chain, without caps; N, C: chain ends. Non-standard residues stand in square brackets, D forms with d. Residues, ends and D or L forms follow the SMILES beside them. d2Nal = N[C@H](Cc1ccc2ccccc2c1)C(=O)O; NMeR = CN[C@@H](CCCNC(=N)N)C(=O)O; Cit = NC(=O)NCCC[C@H](N)C(=O)O; Aib = CC(C)(N)C(=O)O

- molecule: "CC(=O)N[C@@H](CCCNC(=N)N)C(=O)N[C@H]1CSSC[C@@H](C(N)=O)NC(=O)[C@@H](Cc2ccc3ccccc3c2)NC(=O)[C@H](CCCNC(=N)N)NC(=O)[C@@H](Cc2ccccc2)NC(=O)[C@H](CCCNC(=N)N)NC(=O)[C@@H](C)NC1=O [CTX-1264] (Ac-RC[dA]R[dF]R[d2Nal]C-NH2; disulfide 2-8 (inferred))"
  target under test: "human MC3R (Homo sapiens, UniProt P41968)"
  EC50: "3.7 nM"
- molecule: "CC(=O)N[C@@H](CCCNC(=N)N)C(=O)N[C@H]1CSSC[C@@H](C(N)=O)NC(=O)[C@@H](Cc2c[nH]c3ccccc23)NC(=O)[C@H](CCCNC(=N)N)NC(=O)[C@@H](Cc2ccccc2)NC(=O)[C@H](CCCNC(N)=O)NC(=O)C(C)(C)NC1=O [CTX-1290] (Ac-RC[Aib][Cit][dF]R[dW]C-NH2; disulfide 2-8)"
  target under test: "human MC3R (Homo sapiens, UniProt P41968)"
  EC50: "1040 nM"
- molecule: "N=C(N)NCCC[C@@H]1NC(=O)[C@@H](Cc2ccccc2)NC(=O)[C@H](CCCNC(N)=O)NC(=O)CNC(=O)CSC[C@@H](C(N)=O)NC(=O)[C@H](Cc2ccccc2)NC1=O [CTX-1655] ({CH2CO}-G[Cit][dF]RFC-NH2; thioether N-6)"
  target under test: "human MC3R (Homo sapiens, UniProt P41968)"
  EC50: "> 10000 nM"
- molecule: "CC(=O)N[C@@H](CCCNC(=N)N)C(=O)N[C@H]1CSSC[C@@H](C(N)=O)NC(=O)[C@@H](Cc2c[nH]c3ccccc23)NC(=O)[C@H](CCCNC(=N)N)N(C)C(=O)[C@@H](Cc2ccccc2)NC(=O)[C@H](CCCNC(=N)N)NC(=O)[C@@H](C)NC1=O [CTX-1284] (Ac-RC[dA]R[dF][NMeR][dW]C-NH2; disulfide 2-8)"
  target under test: "human MC3R (Homo sapiens, UniProt P41968)"
  EC50: "1040 nM"
- molecule: "CC(=O)N[C@H]1CSSC[C@@H](C(N)=O)NC(=O)[C@H](Cc2c[nH]c3ccccc23)NC(=O)[C@H](CCCNC(=N)N)NC(=O)[C@@H](Cc2ccccc2)NC(=O)[C@H](CCCNC(=N)N)NC(=O)CNC1=O [CTX-1629, cyclo(Cys-Gly-Arg-D-Phe-Arg-Trp-Cys)] (Ac-CGR[dF]RWC-NH2; disulfide 1-7)"
  target under test: "human MC3R (Homo sapiens, UniProt P41968)"
  EC50: "13 nM"
- molecule: "CC(=O)N[C@@H](CCCNC(=N)N)C(=O)N[C@H]1CSSC[C@@H](C(N)=O)NC(=O)[C@@H](Cc2c[nH]c3ccccc23)NC(=O)[C@H](CCCNC(N)=O)NC(=O)[C@@H](Cc2ccccc2)NC(=O)[C@H](CCCNC(=N)N)NC(=O)[C@@H](C)NC1=O [CTX-1281] (Ac-RC[dA]R[dF][Cit][dW]C-NH2; disulfide 2-8 (inferred))"
  target under test: "human MC3R (Homo sapiens, UniProt P41968)"
  EC50: "28 nM"

Each recorded value in this set is attributed to patent US20240391954A1.
